src = patent US20240417405A1

- Tested on: MOLM14 cells
- assay: Proliferation assay, spheroid-like growth, MOLM14 (MLL-AF9 rearranged)
- Format: cell-based, human
- measurementSetup: Homo sapiens, MOLM-14, 192 h, 8 days, confluence as measure of spheroid size, read-out: spheroid assay_OneTime MOLM14 IC50
Readings of IC50 for the listed compounds
# unit: nM | format: bare number

compound	unitsText	IC50
CC(C)[C@H]([C@H]1C[C@@H](N2CCC3(CCO3)C2)C1)N1CC2(CCN(c3ncnnc3Oc3ccc(F)cc3-c3cncnc3C3CC3)C2)C1 (single isomer, unassigned)	nM	8
CC(=O)N1CC[C@]12CCN([C@H]1C[C@@H]([C@@H](C(C)C)N3CC4(CCN(c5ncnnc5Oc5ccc(F)cc5-c5cncnc5C5CC5)C4)C3)C1)C2 (single isomer, unassigned)	nM	7

query: # returns recorded IC50 (system: MOLM14 cells) for CC(C)C([C@H]1C[C@@H](Nc2nnc(N)s2)C1)N1CC2(CCN(c3ncnnc3Oc3ccc(F)cc3-c3cncnc3C3CC3)C2)C1 (single isomer, unassigned)
result: 4

====

- Test system: KO-52 cells
- assay: Proliferation assay, spheroid-like growth, KO-52 (MLL wildtype control cell line)
- Format: cell-based, human
- measurementSetup: Homo sapiens, 192 h, KO-52 control cells, 8 days, confluence as measure of spheroid size; read-out: spheroid assay_OneTime KO-52 IC50
- Experimental: The anti-proliferative effect of menin/MLL protein/protein interaction inhibitor test compounds was assessed in human leukemia cell lines. […] In order to assess the anti-proliferative effects, 200 MOLM14 cells, or 300 KO-52 cells were seeded in 200 μl media per well in 96-well round bottom, ultra-low attachment plates (Costar, catalogue number 7007). […] Spheroid like growth was measured in real-time by live-cell imaging (IncuCyteZOOM, Essenbio, 4× objective) acquiring images at day 8. […]
Entries and their measured IC50 follow.
Response body: numeric value in µM, unit text excluded.

Look over these answered cases.
compound	assayTarget	IC50 / µM
CC(C)[C@H]([C@H]1C[C@@H](N2CCC[C@H](F)C2)C1)N1CC2(CCN(c3ncnnc3Oc3ccc(F)cc3-c3cncnc3C3CC3)C2)C1 (single isomer, unassigned) [Compound 200]	KO-52 cells	9.71
CC(C)[C@@H]([C@H]1C[C@]2(COC(=O)N2)C1)N1CC2(CCN(c3ncnnc3Oc3ccc(F)cc3-c3cncnc3C3CC3)C2)C1 (single isomer, unassigned) [Compound 320]	KO-52 cells	4.6

Attention now turns to another entry.
query: State the recorded IC50 for this entry: CC(C)[C@@H]([C@H]1C[C@@H](N2C[C@H]3C[C@@H]2CO3)C1)N1CC2(CCN(c3ncnnc3Oc3ccc(F)cc3-c3cccnc3C3CC3)C2)C1 (single isomer, unassigned) [Compound 290]
result: 1.08

====

- System: KO-52 cells
- assay: Proliferation assay, spheroid-like growth, KO-52 (MLL wildtype control cell line)
- Type: cell-based, human
- measurementSetup: Homo sapiens, 192 h, KO-52 control cells, 8 days, confluence as measure of spheroid size; read-out: spheroid assay_OneTime KO-52 IC50
pIC50: −log10 of the molar value.
Rule: satisfied for pIC50 not less than 5, not satisfied for anything less.

compound	labelValue
CC(=O)N[C@H]1C[C@@H]([C@@H](C(C)C)N2CC3(CCN(c4ncnnc4Oc4ccc(F)cc4-c4nncnc4C4CC4)C3)C2)C1 (single isomer, unassigned)	satisfied

query: Reported pIC50 reaches at least 5 for CC(C)[C@H]([C@H]1C[C@@H](N2CCC3(COC3)C2)C1)N1CC2(CCN(c3ncnnc3Oc3ccc(F)cc3-c3cncnc3C3CC3)C2)C1 (single isomer, unassigned) ?
result: satisfied

query: Now the compound CC(C)[C@H]([C@H]1C[C@H](N2CCC(C)(C(=O)N(C)C)C2)C1)N1CC2(CCN(c3ncnnc3Oc3ccc(F)cc3-c3cncnc3C3CC3)C2)C1 (stereo partly shown)
result: satisfied

query: Input CC(C)[C@H]([C@H]1C[C@@H](N2CCCC2)C1)N1CC2(CCN(c3ncnnc3Oc3ccc(F)cc3-c3cncnc3C3CC3)C2)C1 (single isomer, unassigned)
result: satisfied

query: Entry to check: CC(=O)N1CC2(C1)CN([C@H]1C[C@H]([C@@H](C(C)C)N3CC4(CCN(c5ncnnc5Oc5ccc(F)cc5-c5cncnc5C5CC5)C4)C3)C1)C2 (single isomer, unassigned)
result: not satisfied

query: Record: CC1CN([C@H]2C[C@@H]([C@H](C(C)C)N3CC4(CCN(c5ncnnc5Oc5ccc(F)cc5-c5cncnc5C5CC5)C4)C3)C2)CCC1O (single isomer, unassigned)
result: not satisfied

query: Now consider CC(C)[C@H]([C@H]1C[C@H](N2CC[C@H](C(C)(C)O)C2)C1)N1CC2(CCN(c3ncnnc3Oc3ccc(F)cc3-c3cncnc3C3CC3)C2)C1 (single isomer, unassigned) and answer again.
result: not satisfied

query: # iterate: "CC(C)[C@H]([C@H]1C[C@@H](N2C[C@H]3COC[C@H]3C2)C1)N1CC2(CCN(c3ncnnc3Oc3ccc(F)cc3-c3cnc(C#N)nc3C3CC3)C2)C1"
result: satisfied
